- tested-system: T1, BCL-XL (UniProt Q07817 1-209)
- T1 construct: Target of the Ki columns
- T1 sequence (Q07817 1-209): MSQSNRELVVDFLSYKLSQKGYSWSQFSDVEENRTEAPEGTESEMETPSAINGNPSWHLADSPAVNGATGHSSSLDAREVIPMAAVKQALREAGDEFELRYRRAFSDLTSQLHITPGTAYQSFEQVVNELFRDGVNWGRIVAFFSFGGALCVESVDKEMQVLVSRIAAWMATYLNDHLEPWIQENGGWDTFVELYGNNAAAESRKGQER
- protocol: Ki (Table 8); method not stated
reported-endpoint: Ki (nM)
The reply should be a number in nM, with the unit left off.

I am curious: what Ki value has been reported for IWIAQALRALGDAFNAYFA (not fully specified; N-terminal Ac; $r8 at residue 9 (column 154) and $ at residue 16 (column 161), crosslinked; hL at residue 10 (column 155); F4F at residue 18 (column 163); C-terminal NH2) [Cross-linked peptide #16] ? 13
